Origin of values: ChEMBL document CHEMBL1212896

procedure-text: Solubility of the compound
Assay type: physicochemical
reported-metric: solubility (µM)
Hi! Could you send only the number? It should be in µM, unit omitted.

Item: `COC(=O)C1=C(Cn2cnnn2)NC(C)=C(C#N)[C@H]1c1ccc(F)cc1Cl` | solubility: 32

The measured solubility associated with COC(=O)C1=C(C)NC(C)=C(C#N)C1c1ccc(F)cc1Cl (stereo not given) reads 10

====

study-system: Androgen receptor (Homo sapiens, UniProt P10275)
Sequence (P10275 whole entry, the tested form may be a part): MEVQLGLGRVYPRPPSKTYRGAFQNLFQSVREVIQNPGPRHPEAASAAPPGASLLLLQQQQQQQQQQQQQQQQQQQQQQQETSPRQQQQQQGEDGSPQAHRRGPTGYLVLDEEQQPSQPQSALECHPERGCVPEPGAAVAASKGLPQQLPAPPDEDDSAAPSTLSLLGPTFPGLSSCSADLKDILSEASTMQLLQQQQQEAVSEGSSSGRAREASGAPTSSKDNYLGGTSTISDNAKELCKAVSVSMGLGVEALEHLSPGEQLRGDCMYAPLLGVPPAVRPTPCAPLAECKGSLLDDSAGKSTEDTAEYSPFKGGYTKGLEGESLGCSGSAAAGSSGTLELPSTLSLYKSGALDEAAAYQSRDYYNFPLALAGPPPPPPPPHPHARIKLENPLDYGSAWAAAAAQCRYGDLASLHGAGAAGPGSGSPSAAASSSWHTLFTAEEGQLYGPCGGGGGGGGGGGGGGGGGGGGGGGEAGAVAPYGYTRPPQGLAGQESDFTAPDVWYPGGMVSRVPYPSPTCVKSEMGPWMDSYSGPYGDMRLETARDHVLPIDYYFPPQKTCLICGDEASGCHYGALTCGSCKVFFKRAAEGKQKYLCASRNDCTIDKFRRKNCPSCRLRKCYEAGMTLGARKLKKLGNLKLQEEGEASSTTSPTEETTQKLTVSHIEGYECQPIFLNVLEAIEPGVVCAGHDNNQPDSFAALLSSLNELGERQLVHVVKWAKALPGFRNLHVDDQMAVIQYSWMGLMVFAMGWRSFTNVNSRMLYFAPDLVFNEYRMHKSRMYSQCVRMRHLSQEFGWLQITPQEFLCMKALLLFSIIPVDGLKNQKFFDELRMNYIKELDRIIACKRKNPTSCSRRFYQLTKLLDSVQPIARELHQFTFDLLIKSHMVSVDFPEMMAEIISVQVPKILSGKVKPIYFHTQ
procedure-text: Antagonist activity at androgen receptor LBD expressed in human HUH7 cells coexpressing GAL4 by luciferase reporter gene assay
Assay type: functional, cell-based, Huh-7
reported-metric: IC50
State the result as a value with its unit after it.

Summary for this molecule, COC(=O)C1=C(Cn2cncn2)NC(C)=C(C#N)C1c1ccc(F)cc1Cl (centres undefined) : IC50 is 4600 nM

// IC50 lookup, molecule = CCCC1=C(C(=O)OC)C(c2ccccc2Cl)C(C#N)=C(C)N1 (centres undefined) , result: 300 nM

IC50 reading for COC(=O)C1=C(Cn2ccnc2)NC(C)=C(C#N)C1c1ccc(F)cc1Cl (centres undefined) : 3900 nM

Input COC(=O)C1=C(C)NC(C)=C(C#N)C1c1ccc(F)cc1Cl (centres undefined) . Output IC50: 300 nM

IC50 in this record for COC(=O)C1=C(Cn2cnnn2)NC(C)=C(C#N)C1c1ccc(F)cc1Cl (centres undefined) : 2700 nM

Short answer for COC(=O)C1=C(C(F)(F)F)NC(C)=C(C#N)C1c1ccc(F)cc1Cl (centres undefined) : IC50 was 800 nM

CCCC1=C(C(=O)OC)C(c2ccc(F)cc2Cl)C(C#N)=C(C)N1 (centres undefined) has a reported IC50 of 100 nM

For reference, reported IC50 for CCCCC1=C(C(=O)OC)C(c2ccccc2Cl)C(C#N)=C(C)N1 (centres undefined) stands at 900 nM

Measured IC50, `COC(=O)C1=C(Cn2cnnn2)NC(C)=C(C#N)[C@H]1c1ccc(F)cc1Cl` : 300 nM

====

study-system: Progesterone receptor (Homo sapiens)
Sequence (P06401 whole entry, the tested form may be a part): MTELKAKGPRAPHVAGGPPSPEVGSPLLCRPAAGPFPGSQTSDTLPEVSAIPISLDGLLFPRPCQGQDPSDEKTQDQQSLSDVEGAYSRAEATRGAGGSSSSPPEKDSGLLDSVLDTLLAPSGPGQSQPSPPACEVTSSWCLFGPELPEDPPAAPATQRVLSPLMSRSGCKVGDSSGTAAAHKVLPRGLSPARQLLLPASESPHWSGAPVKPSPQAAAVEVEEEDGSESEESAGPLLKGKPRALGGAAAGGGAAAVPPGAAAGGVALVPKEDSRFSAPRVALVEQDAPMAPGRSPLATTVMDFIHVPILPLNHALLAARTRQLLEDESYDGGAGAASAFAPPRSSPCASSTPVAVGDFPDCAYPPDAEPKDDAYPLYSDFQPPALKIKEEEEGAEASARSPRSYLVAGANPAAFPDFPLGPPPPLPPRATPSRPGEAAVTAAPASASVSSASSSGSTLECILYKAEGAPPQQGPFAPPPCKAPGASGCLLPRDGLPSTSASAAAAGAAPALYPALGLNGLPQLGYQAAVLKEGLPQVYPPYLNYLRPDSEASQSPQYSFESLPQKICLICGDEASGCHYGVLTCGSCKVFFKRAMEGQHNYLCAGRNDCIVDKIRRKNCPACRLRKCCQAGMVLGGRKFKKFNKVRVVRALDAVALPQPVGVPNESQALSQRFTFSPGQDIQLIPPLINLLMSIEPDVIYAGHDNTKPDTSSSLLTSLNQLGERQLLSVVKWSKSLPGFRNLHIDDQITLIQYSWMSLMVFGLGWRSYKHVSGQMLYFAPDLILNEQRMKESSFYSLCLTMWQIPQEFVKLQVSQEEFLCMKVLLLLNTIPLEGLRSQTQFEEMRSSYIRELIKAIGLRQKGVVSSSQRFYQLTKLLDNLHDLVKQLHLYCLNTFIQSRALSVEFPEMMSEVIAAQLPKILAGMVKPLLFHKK
procedure-text: Antagonist activity at progesterone receptor LBD expressed in human HUH7 cells coexpressing GAL4 by luciferase reporter gene assay
Assignment: determine reported pIC50 for the given molecules.
# log scale: pIC50 equals minus log10 of the concentration in mol/L

Measured pIC50 of `COC(=O)C1=C(Cn2cnnn2)NC(C)=C(C#N)[C@H]1c1ccc(F)cc1Cl` : 5.14

CCCCC1=C(C(=O)OC)C(c2ccccc2Cl)C(C#N)=C(C)N1 (stereo not given) has a reported pIC50 of 6.52

Lookup result for CCCC1=C(C(=O)OC)C(c2ccccc2Cl)C(C#N)=C(C)N1 (stereo not given) ; measured pIC50: 6.70

Item: COC(=O)C1=C(Cn2cncn2)NC(C)=C(C#N)C1c1ccc(F)cc1Cl (stereo not given) | pIC50: 5.15

Consider COC(=O)C1=C(C)NC(C)=C(C#N)C1c1ccc(F)cc1Cl (stereo not given) . Its measured pIC50 is 6.05

pIC50 measured on COC(=O)C1=C(Cn2cccn2)NC(C)=C(C#N)C1c1ccc(F)cc1Cl (stereo not given) = 5.26

Reported pIC50 ( COC(=O)C1=C(C(F)(F)F)NC(C)=C(C#N)C1c1ccc(F)cc1Cl (stereo not given) ) = 5.11

====

procedure-text: Volume of distribution at steady state in Sprague-Dawley rat at 5 mg/kg, iv
Format: ADME, organism-based
Parameters: dose 5 mg/kg, route intravenous
measurement-context: in vivo, read-out: Vdss
reported-metric: Vd
A bare number is not enough; add the unit after it.

Reported Vd for COC(=O)C1=C(Cn2cnnn2)NC(C)=C(C#N)C1c1ccc(F)cc1Cl (stereo unspecified) was 0.9 L/kg

====

Tested on: Liver microsomes
procedure-text: Metabolic stability in human liver microsomes assessed as compound remaining; also: time not given here
Assay type: ADME, Microsome
Give Stability for every item shown.
Expressed in %, but write only the number.

Sample COC(=O)C1=C(C)NC(C)=C(C#N)C1c1ccc(F)cc1Cl (centres undefined) ; Stability observed: 37

// Stability lookup, molecule = COC(=O)C1=C(Cn2cncn2)NC(C)=C(C#N)C1c1ccc(F)cc1Cl (centres undefined) , result: 9

molecule COC(=O)C1=C(Cn2ccnc2)NC(C)=C(C#N)C1c1ccc(F)cc1Cl (centres undefined) , Stability observed: 8

molecule COC(=O)C1=C(Cn2cccn2)NC(C)=C(C#N)C1c1ccc(F)cc1Cl (centres undefined) , Stability observed: 2

Noted for CCCC1=C(C(=O)OC)C(c2ccc(F)cc2Cl)C(C#N)=C(C)N1 (centres undefined) : its Stability reads 4

Stability reported for this molecule CCCCC1=C(C(=O)OC)C(c2ccccc2Cl)C(C#N)=C(C)N1 (centres undefined) : 11

Item: CCCC1=C(C(=O)OC)C(c2ccccc2Cl)C(C#N)=C(C)N1 (centres undefined) | Stability: 36

Briefly, Stability measured for COC(=O)C1=C(C(F)(F)F)NC(C)=C(C#N)C1c1ccc(F)cc1Cl (centres undefined) : 0

For this molecule ( COC(=O)C1=C(Cn2cnnn2)NC(C)=C(C#N)C1c1ccc(F)cc1Cl (centres undefined) ), measured Stability is 3

====

study-system: Mineralocorticoid receptor (Homo sapiens)
Assign labels as follows, please: fulfilled for IC50 below 0.7 µM; not fulfilled for IC50 equal to or exceeding 0.7 µM.

In the record for COC(=O)C1=C(Cc2ccccc2)NC(C)=C(C#N)C1c1ccccc1Cl (stereo not given) , is IC50 less than 0.7 µM?
not fulfilled

Does this compound meet the criterion IC50 < 0.7 µM? CCCC1=C(C(=O)OC)C(c2ccccc2)C(C#N)=C(C)N1 (stereo not given)
not fulfilled

API: query returns whether the compound falls strictly under 0.7 µM in IC50. Query: CC1=C(C#N)C(c2ccc(F)cc2)C(C(=O)OC(C)(C)C)=C(C)N1 (stereo not given)
fulfilled

Hello, I'm reviewing records and need to know if IC50 of COC(=O)C1=C(C)NC(C)=C(C(=O)OC(C)(C)C)C1c1ccc(Cl)cc1 (stereo not given) is below 0.7 µM. Could you check?
fulfilled

Report whether reported IC50 is lower than 0.7 µM (strictly) for COC(=O)C1=C(C(C)C)NC(C)=C(C#N)C1c1ccccc1Cl (stereo not given)
fulfilled

Please let me know if COC(=O)C1=C(C)NC(C)=C(C(=O)OC(C)(C)C)C1c1cccc(Cl)c1 (stereo not given) shows IC50 below 0.7 µM.
fulfilled

Strictly below 0.7 µM: is that where IC50 of COCC1=C(C(=O)OC)C(c2ccccc2Cl)C(C#N)=C(C)N1 (stereo not given) sits?
fulfilled

Find out if reported IC50 for COC(=O)C1=C(C)NC(C)=C(C(=O)OC(C)(C)C)C1c1cccc(O)c1 (stereo not given) is less than 0.7 µM
not fulfilled

For this compound, is IC50 lower than 0.7 µM? COC(=O)C1=C(Cn2cccn2)NC(C)=C(C#N)C1c1ccc(F)cc1Cl (stereo not given)
fulfilled

Given the entry CCCC1=C(C(=O)OC)C(c2ccc(F)cc2Cl)C(C#N)=C(C)N1 (stereo not given) , would its reported IC50 be below 0.7 µM?
fulfilled

====

For each entry below, report its pIC50 value.
study-system: Cytochrome P450 3A4 (Homo sapiens, UniProt P08684)
Sequence (P08684 whole entry): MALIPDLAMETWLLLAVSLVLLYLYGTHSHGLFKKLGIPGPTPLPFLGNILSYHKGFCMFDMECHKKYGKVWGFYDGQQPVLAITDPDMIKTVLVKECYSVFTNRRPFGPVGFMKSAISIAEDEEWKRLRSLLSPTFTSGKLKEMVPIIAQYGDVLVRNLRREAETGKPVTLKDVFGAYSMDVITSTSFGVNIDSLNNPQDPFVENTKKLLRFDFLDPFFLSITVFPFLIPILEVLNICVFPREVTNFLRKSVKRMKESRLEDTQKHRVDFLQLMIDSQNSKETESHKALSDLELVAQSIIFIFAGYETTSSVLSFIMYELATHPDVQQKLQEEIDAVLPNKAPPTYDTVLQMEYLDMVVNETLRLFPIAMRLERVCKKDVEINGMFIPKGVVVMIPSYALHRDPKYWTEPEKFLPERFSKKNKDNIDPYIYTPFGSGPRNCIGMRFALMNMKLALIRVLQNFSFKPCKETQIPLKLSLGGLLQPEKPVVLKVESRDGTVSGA
procedure-text: Inhibition of CYP3A4
Format: ADME
Here pIC50 is given on a logarithmic scale as minus log10 of the concentration in mol/L.

Quick note, pIC50 for COC(=O)C1=C(Cn2cnnn2)NC(C)=C(C#N)C1c1ccc(F)cc1Cl (stereo not drawn) landed at 5.92

Value of measured pIC50 for the entry COC(=O)C1=C(Cn2cncn2)NC(C)=C(C#N)C1c1ccc(F)cc1Cl (stereo not drawn) : 6.10

Sure, the documented pIC50 for COC(=O)C1=C(Cn2cccn2)NC(C)=C(C#N)C1c1ccc(F)cc1Cl (stereo not drawn) is 5.96

====

procedure-text: Clearance in Sprague-Dawley rat at 5 mg/kg, iv
Format: ADME, organism-based
Set-up: dose 5 mg/kg, route intravenous
measurement-context: in vivo
reported-metric: clearance (mL/min/kg)
I only need the number, in mL/min/kg, no unit after it.

# clearance of COC(=O)C1=C(Cn2cnnn2)NC(C)=C(C#N)C1c1ccc(F)cc1Cl (stereo unspecified) = 14.1

====

procedure-text: Intrinsic clearance in rat liver microsomes
Assay type: ADME, Microsome
reported-metric: CLint scaled (mL/min/kg)
Numbers only; they are read as mL/min/kg.

Lookup result for `COC(=O)C1=C(Cn2cnnn2)NC(C)=C(C#N)[C@H]1c1ccc(F)cc1Cl` ; measured CLint scaled: 8.71

====

study-system: Mineralocorticoid receptor (Homo sapiens)
Sequence (P08235 whole entry): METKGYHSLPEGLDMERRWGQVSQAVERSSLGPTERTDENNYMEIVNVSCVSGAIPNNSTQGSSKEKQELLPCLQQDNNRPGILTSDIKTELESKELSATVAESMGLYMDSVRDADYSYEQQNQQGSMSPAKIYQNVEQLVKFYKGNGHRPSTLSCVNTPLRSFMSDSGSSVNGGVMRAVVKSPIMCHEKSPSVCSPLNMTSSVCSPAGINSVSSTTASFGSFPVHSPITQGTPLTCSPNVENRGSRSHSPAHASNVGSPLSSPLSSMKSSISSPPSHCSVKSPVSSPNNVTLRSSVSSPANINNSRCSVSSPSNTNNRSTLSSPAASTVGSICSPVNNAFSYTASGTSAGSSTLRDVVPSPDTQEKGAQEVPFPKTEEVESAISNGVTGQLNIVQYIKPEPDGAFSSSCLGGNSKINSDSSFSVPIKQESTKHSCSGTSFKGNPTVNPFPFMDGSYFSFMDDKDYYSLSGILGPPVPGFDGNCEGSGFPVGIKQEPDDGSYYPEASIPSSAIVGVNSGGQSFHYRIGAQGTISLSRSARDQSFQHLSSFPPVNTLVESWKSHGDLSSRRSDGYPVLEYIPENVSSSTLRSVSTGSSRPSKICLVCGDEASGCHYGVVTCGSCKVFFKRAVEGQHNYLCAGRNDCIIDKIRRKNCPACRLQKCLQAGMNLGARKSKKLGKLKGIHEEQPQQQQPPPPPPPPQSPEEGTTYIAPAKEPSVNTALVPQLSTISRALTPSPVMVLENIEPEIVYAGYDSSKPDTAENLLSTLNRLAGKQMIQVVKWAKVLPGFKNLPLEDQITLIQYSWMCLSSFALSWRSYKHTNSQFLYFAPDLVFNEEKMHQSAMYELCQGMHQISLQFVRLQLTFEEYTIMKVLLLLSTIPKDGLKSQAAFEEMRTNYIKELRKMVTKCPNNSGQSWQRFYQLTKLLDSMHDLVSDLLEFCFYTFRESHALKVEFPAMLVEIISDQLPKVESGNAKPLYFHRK
Mark each entry 1.0 if its IC50 sits below 2000 nM, and 0.0 for all others.

Lab log: compare recorded IC50 with 2000 nM; is it strictly lower for COC(=O)C1=C(C)NC(C)=C(C(=O)OC(C)(C)C)C1c1ccc(C)cc1 (stereo unspecified) ?
0.0

Please let me know if COC(=O)C1=C(C)NC(C)=C(C(=O)OC(C)(C)C)C1c1cccc(C)c1 (stereo unspecified) shows IC50 below 2000 nM.
0.0

Please indicate whether the reported IC50 of CCCC1=C(C(=O)OC)C(c2ccccc2Cl)C(C#N)=C(C)N1 (stereo unspecified) is strictly below 2000 nM.
1.0

Quick check: IC50 of CC1=C(C#N)C(c2ccc(F)cc2F)C(C(=O)OC(C)(C)C)=C(C)N1 (stereo unspecified) under 2000 nM?
1.0

Regarding COC(=O)C1=C(C)NC(C)=C(C(=O)OC(C)(C)C)C1c1ccc(OC)cc1 (stereo unspecified) , kindly confirm whether its IC50 is beneath 2000 nM.
0.0

Criterion: IC50 strictly below 2000 nM. Is it met by CC1=C(C#N)C(C)(c2ccc(F)cc2)C(C(=O)OC(C)(C)C)=C(C)N1 (stereo unspecified) ?
1.0

Determine whether this compound shows IC50 lower than 2000 nM (ties excluded): COC(=O)C1=C(C)NC(C)=C(C(=O)OC(C)(C)C)C1c1cccc(OC)c1 (stereo unspecified)
1.0

Dear reviewer, please state whether COC(=O)C1=C(Cn2cncn2)NC(C)=C(C#N)C1c1ccc(F)cc1Cl (stereo unspecified) has IC50 strictly beneath 2000 nM.
1.0

State whether 2000 nM exceeds IC50 recorded for COC(=O)C1=C(C)NC(C)=C(C(=O)OC(C)(C)C)C1c1ccccc1C(F)(F)F (stereo unspecified) .
1.0

In the record for COC(=O)C1=C(C)NC(C)=C(C(=O)OC(C)(C)C)C1c1ccc(C(F)(F)F)cc1 (stereo unspecified) , is IC50 less than 2000 nM?
1.0
